Target: CRF receptor (Rattus norvegicus)
Construct: 100 μl of membrane suspension as prepared above to give a total reaction volume of 300 μl; from tissue; host or cells: rat cerebral cortex membrane homogenate
Sequence (P35353 24-415): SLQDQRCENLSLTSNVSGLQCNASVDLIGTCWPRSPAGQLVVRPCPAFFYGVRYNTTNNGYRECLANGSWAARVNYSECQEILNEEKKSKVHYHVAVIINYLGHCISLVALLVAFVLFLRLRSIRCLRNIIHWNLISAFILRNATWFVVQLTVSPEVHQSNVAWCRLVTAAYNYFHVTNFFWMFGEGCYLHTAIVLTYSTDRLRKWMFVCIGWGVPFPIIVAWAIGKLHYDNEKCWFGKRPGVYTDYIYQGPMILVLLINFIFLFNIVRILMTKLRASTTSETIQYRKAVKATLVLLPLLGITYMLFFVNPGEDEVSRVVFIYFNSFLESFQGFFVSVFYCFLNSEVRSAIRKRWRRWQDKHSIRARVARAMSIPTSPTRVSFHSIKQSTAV
Assay: In vitro CRF receptor binding assay (competition with [125I] ovine CRF, rat cortex membranes)
Conditions: read-out: Inhibition Ki
pKi: −log10 of the molar value.
# pKi listing for each entry below

Previously resolved entries follow.
chem_smiles=CCN(c1nc(C)nc(OCc2ccccc2)n1)c1ccc(C(C)C)cc1Br system_under_test="CRF receptor (Rattus norvegicus)" observation_type=pKi measurement="5.70 to 6.30"
chem_smiles=CCN(c1nc(C)cc(COCc2cccnc2)n1)c1ccc(C(C)C)cc1Br system_under_test="CRF receptor (Rattus norvegicus)" observation_type=pKi measurement="> 6.30"
chem_smiles=CCN(c1nc(C)cc(COc2cc(OC)c(OC)c(OC)c2)n1)c1ccc(C(C)C)cc1Br system_under_test="CRF receptor (Rattus norvegicus)" observation_type=pKi measurement="5.70 to 6.30"

Now let's try a different one.
Lab note: need pKi with CRF receptor (Rattus norvegicus) for entry CCN(c1nc(C)cc(C(=O)c2c[nH]c3ccccc23)n1)c1ccc(C(C)C)cc1Br , please look it up. 5.00 to 5.70
